Biological target: CK2α (Homo sapiens, UniProt P68400)
Sequence (P68400 2-329): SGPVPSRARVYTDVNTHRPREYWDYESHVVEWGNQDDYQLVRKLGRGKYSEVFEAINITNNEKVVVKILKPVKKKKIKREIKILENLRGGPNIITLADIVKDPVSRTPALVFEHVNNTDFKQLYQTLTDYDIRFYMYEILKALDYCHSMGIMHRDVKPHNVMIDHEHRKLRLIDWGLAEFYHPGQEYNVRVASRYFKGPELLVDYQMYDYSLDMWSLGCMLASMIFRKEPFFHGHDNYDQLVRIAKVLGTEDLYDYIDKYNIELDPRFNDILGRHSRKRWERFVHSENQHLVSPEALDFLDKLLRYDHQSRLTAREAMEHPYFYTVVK
quantity: IC50 (nM)

// below: answered compounds
O=C(Cc1cnc(CCNCc2ccc(OC(F)(F)F)c(Cl)c2)o1)Nc1cc(-n2cnnc2)cc2[nH]ncc12: 27.1
Cc1cnccc1-c1cc(NCCCNC(=O)CCNCc2ccc(OC(F)(F)F)c(Cl)c2)c2cn[nH]c2c1: 72.9
C[C@@H](CCCOCCNc1cc(-c2cnnc(O)c2)cc2[nH]ncc12)NCc1cc(Cc2cnco2)cc(OC(F)(F)F)c1: 0.41
O=C(CCNCc1ccc(OC(F)(F)F)c(Cl)c1)NCCCNc1cc(-c2cocn2)cc2[nH]ncc12: 10.7

1 = C[C@H](COCCCCNCc1cc(CO)cc(OC(F)(F)F)c1)Nc1cc(-c2cnns2)cc2[nH]ncc12
2 = O=C(CCNCc1ccc(-c2ccccc2)c(Cl)c1)NCCCNc1cc(-c2ccncc2)cc2[nH]nnc12
3 = c1cc(-c2cc(N3CC(OCCCCNCc4cc5cc(OC6CCC6)ccc5[nH]4)C3)c3cn[nH]c3c2)cnn1
4 = Clc1cc(CNCCc2cn(CCNc3cc(-n4cnnc4)cc4[nH]ncc34)nn2)ccc1-c1ccccc1
(Q) Your job: order these 4 records by IC50, ascending. // format: requested-order list of labels
(A) 2, 4, 1, 3

P = O=C(CCNCc1ccc(OC(F)(F)F)c(Cl)c1)NCCCNc1cc(-c2nnco2)cc2[nH]ncc12
Q = OCCOc1cc(CNCCCCOCCNc2cccc3[nH]ncc23)cc(OC(F)(F)F)c1
(Q) Returns: the label, P or Q , whose recorded IC50 is the lower number. Refer to your chosen entry by its label in the reply.
(A) P
(P: 9.06 nM, Q: 216 nM)

A = FC(F)(F)c1ccc2[nH]c(CNCCCCOCCNc3cc(-c4ccncn4)cc4[nH]ncc34)cc2c1
B = O=C(CCNCc1ccc(-c2ccccc2)c(Cl)c1)NCCCNc1cc(-c2cc[n+]([O-])cc2)cc2[nH]ncc12
(Q) Returns: the label, A or B , whose recorded IC50 is the lower number. Refer to your chosen entry by its label in the reply.
(A) B

a = O=C(CCNCc1ccc(OC(F)(F)F)c(Cl)c1)NCCCNc1cccc2[nH]ncc12
b = O=C(CCNCc1ccc(OC(F)(F)F)c(Cl)c1)NCCCNc1cc(-c2ncon2)cc2[nH]ncc12
(Q) Returns: the label, a or b , whose recorded IC50 is the lower number. Refer to your chosen entry by its label in the reply.
(A) b

###

biological target: intracellular CK2α (Homo sapiens); assay: Cell-based NanoBRET assay for inhibitor binding to intracellular CK2α; details: HCT116 cells transiently transfected with CSNK2A2-NanoLuc fusion vector; Tracer K-5; 2 h; read-out: Assay 3: NanoBRET ™ assay for binding to intracellular CK2α
quantity: IC50 (nM)

N#CCc1cc(F)cc(CNCCCCOC2CN(c3cc(-n4cnnc4)cc4[nH]ncc34)C2)c1: 10700
O=C(CCNCc1ccc(OC(F)(F)F)c(Cl)c1)NCCCNc1cc(-c2ccncc2)cc2[nH]ncc12: 240
O=C(CCNCc1ccc(-c2ccccc2CO)c(Cl)c1)NCCCNc1cc(-n2cnnc2)cc2[nH]ncc12: 9290
FC(F)(F)c1ccc2[nH]c(CNCCCCOCCOc3cc(-c4cnoc4)cc4[nH]ncc34)cc2c1: 347
O=C(CCNCc1cc(Cl)cc(CO)c1)NCCCNc1cc(-n2cnnc2)cc2[nH]ncc12: 20200

a = FC(F)(F)Oc1ccc(CNCCCCOC2CN(c3cc(-c4ccnnc4)cc4[nH]ncc34)C2)cc1Cl
b = c1cc2[nH]c(CNCCCCOCCOc3cc(-c4cnoc4)cc4[nH]ncc34)cc2cc1OC1CCC1
c = C[C@@H](CCCOCCNc1cc(-c2cnoc2)cc2[nH]ncc12)NCc1cc(OC(F)(F)F)cc(C(N)=O)c1
(Q) Your job: order these 3 records by IC50, ascending. // format: requested-order list of labels
(A) c, b, a
(c: 54.7 nM, b: 128 nM, a: 3740 nM)

###

Molecular target: CK2α (Homo sapiens, UniProt P68400)
Sequence (P68400 2-329): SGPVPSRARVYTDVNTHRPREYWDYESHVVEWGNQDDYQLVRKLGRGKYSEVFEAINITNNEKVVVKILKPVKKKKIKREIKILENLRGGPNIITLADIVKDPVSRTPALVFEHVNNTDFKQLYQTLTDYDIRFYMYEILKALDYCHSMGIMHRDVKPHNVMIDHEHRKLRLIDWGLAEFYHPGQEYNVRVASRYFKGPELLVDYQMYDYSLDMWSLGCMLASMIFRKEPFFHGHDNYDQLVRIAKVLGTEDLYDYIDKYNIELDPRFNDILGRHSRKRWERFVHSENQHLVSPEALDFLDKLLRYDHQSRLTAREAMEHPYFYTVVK
quantity: IC50 (nM)

// below: answered compounds
O=C(CCNCc1ccc(OC(F)(F)F)c(Cl)c1)NCCCNc1cc(-c2ccncc2F)cc2[nH]ncc12: 6.53
O=C(CCOCCCNCc1ccc(OC(F)(F)F)c(Cl)c1)Nc1cc(-n2cnnc2)cc2[nH]ncc12: 256
FC(F)(F)Oc1ccc(CNCCCCOC2CN(c3cc(-c4ccnnc4)cc4[nH]ncc34)C2)cc1Cl: 28.1
OCc1cc(F)cc(CNCCCCOC2CN(c3cc(-n4cnnc4)cc4[nH]ncc34)C2)c1: 162
c1cc(-c2cc(NCCOCCCCNCc3cc4cc(OC5CCC5)ccc4[nH]3)c3cn[nH]c3c2)cnn1: 0.6

1 = FC(F)(F)c1ccc2[nH]c(CNCCCCOC3CN(c4cc(-c5ccnnc5)cc5[nH]nnc45)C3)cc2c1
2 = O=C(CCNCc1ccc(OC(F)(F)F)c(Cl)c1)NCCCNc1cc(-n2cnnc2)cc2[nH]ncc12
3 = FC(F)(F)c1ccc2[nH]c(CNCCCCOCCOc3cc(-n4cnnc4)cc4[nH]ncc34)cc2c1
4 = COc1cc(-c2cc(NCCOCCCCNCc3cc4cc(C(F)(F)F)ccc4[nH]3)c3cn[nH]c3c2)ccn1
5 = CNc1n[nH]c2cc(-n3cnnc3)cc(NCCOCCCCNCc3cc(F)c(OC(F)(F)F)c(F)c3)c12
(Q) Your job: order these 5 records by IC50, ascending. // format: requested-order list of labels
(A) 2, 5, 3, 4, 1

P = O=C(CCNCc1ccc(OC(F)(F)F)c(Cl)c1)NCCCNc1cc(-c2cnco2)cc2[nH]ncc12
Q = O=C(CCNCc1ccc(-c2ccccc2)c(Cl)c1)NCCCNc1cc(C2CCOC2)cc2[nH]ncc12 (stereo not drawn)
R = N#CCc1cc(CNCCCCOC2CN(c3cc(-c4ccnnc4)cc4[nH]nnc34)C2)cc(OC(F)(F)F)c1
(Q) Your job: order these 3 records by IC50, ascending. // format: requested-order list of labels
(A) P, Q, R

a = N#Cc1cc(CNCCC(=O)NCCCNc2cc(-n3cnnc3)cc3[nH]ncc23)ccc1OC(F)(F)F
b = FC(F)(F)c1ccc2[nH]c(CNCCCCOC3CN(c4cc(-n5cnnc5)cc5[nH]ncc45)C3)cc2c1
(Q) Which numeric IC50 is bigger, that of a or that of b ? Refer to your chosen entry by its label in the reply.
(A) b
(b: 3.96 nM, a: 2.65 nM)

###

target: intracellular CK2α (Homo sapiens, UniProt P19784); assay: Cell-based NanoBRET assay for inhibitor binding to intracellular CK2α; conditions: HCT116 cells transiently transfected with CSNK2A2-NanoLuc fusion vector; Tracer K-5; 2 h; read-out: Assay 3: NanoBRET ™ assay for binding to intracellular CK2α
Sequence (P19784 whole entry, the tested form may be a part): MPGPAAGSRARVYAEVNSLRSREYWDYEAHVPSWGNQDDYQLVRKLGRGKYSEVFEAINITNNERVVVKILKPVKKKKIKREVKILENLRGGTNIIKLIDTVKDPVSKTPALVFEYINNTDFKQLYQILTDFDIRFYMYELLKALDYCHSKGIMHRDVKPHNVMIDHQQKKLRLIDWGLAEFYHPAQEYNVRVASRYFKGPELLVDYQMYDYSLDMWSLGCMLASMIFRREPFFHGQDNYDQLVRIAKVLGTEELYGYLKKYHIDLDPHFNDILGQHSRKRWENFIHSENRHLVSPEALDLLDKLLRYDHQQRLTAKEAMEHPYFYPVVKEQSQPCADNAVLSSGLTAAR
pIC50: −log10 of the molar value.
quantity: pIC50

c1cc2[nH]c(CNCCCCOCCNc3cc(-c4cnoc4)cc4[nH]ncc34)cc2cc1OC1CCC1 [Example 98]: 6.98

A = Cc1cc(CC#N)cc(CNCCCCOC2CN(c3cc(-c4cnoc4)cc4[nH]ncc34)C2)c1 [Example 121]
B = N#CCc1cc(CNCCCCOC2CN(c3cc(-n4cnnc4)cc4[nH]ncc34)C2)cc(OC(F)(F)F)c1 [Example 147]
(Q) Returns: the label, A or B , whose recorded pIC50 is the lower number. Refer to your chosen entry by its label in the reply.
(A) A

// data source = patent US20260085062A1
